All values here come from PubChem BioAssay (NCI).

So I've got a bunch of compounds here, and I need their TGI values.
System: RPMI-8226 leukemia
Test: NCI tumour cell line growth inhibition, 48 h
Numbers only, in µM.

Consider the reported TGI for these compounds:
Look at this compound and give its reported TGI. O=C(COC(=O)[C@H](C[Se][Se]C[C@H](NC(=O)c1ccc(Br)cc1F)C(=O)OCC(=O)c1ccc(F)cc1)NC(=O)c1ccc(Br)cc1F)c1ccc(F)cc1
0.593

Dear colleague, I am looking for the recorded TGI of the following compound: Cn1nc(-c2ccccc2)c(C(=O)/C=C/c2ccccc2)c(N2CCCC2)c1=O
29.3

State recorded TGI for all listed compounds.
1. CC(C)C12CCC3(CCC4C(C)(C(=O)O)CCCC4(C)C3C1)C(CN)C2 (centres undefined)
2. COc1ccc(-c2ccc(/C=N/n3c(COc4ccc(Cl)c(C)c4)nn(CN4CCOCC4)c3=S)o2)c([N+](=O)[O-])c1

[42, 34.9]

====

For each entry below, report its TGI value.
Tested on: HCT-15 colon
Test: NCI tumour cell line growth inhibition, 48 h
One number for each entry, in µM.

Which value of TGI has been reported for COc1ccc(N=C(SSC(=Nc2ccc(OC)cc2)c2ccc([N+](=O)[O-])o2)c2ccc([N+](=O)[O-])o2)cc1 in the records?
2.03

Given ClCc1ccc(Cn2cnc3nc(Cl)nc(Cl)c32)cc1 , state its recorded TGI.
1.03

Continuing:
I would be grateful if you could share the reported TGI for CCCCCCCCCCCC1=C(O)C(=O)C=C(O)C1=O .
49.3

====

Test system: OVCAR-5 ovarian
Experiment: NCI tumour cell line growth inhibition, 48 h
Would you mind telling me the reported TGI of each entry?

Notebook entry, OVCAR-5 ovarian assay: TGI of CC(=O)Nc1ccc(C(=O)NN2C(=O)CSC2c2ccccc2)cc1 (stereo unspecified) = ?
> 100 µM

Record TGI for all entries; do not skip any.
1. Cc1cccc2c1Oc1ncccc1C2NC(=O)CN(C)C (stereo unspecified)
2. O=C1C(=O)c2c(ccc3ccccc23)-c2ccccc21
3. Cc1cccc(Cc2cnc(NC(=O)CCCOc3ccc(Cl)cc3)s2)c1
4. Cc1c(C(=O)C/C(=N/NC(=O)CC#N)C(N)=O)[n+](=O)c2ccccc2n1[O-]
5. COc1cccc2c(Nc3ccc(C(=O)NCCN4CCNCC4)cc3)cc(-c3ccccc3)nc12

["> 10 µM", "7.45 µM", "> 100 µM", "> 100 µM", "> 100 µM"]

====

System: MOLT-4 leukemia
Assay: NCI tumour cell line growth inhibition, 48 h
attribute_measured: TGI

Some molecules with known TGI results, for comparison:
Data request, read-out TGI, for CCNC(=O)O/N=C1/C=C2CC[C@@H]3C(CC[C@@]4(C)C3CC[C@@H]4OC(=O)NCC)[C@@]2(C)CC1 (stereo not given in full)
5.44 µM

What value of TGI has been reported for the following molecule? COc1cc(CC2C(=O)OCC2Cc2ccc(OC)c(OC)c2)ccc1O (stereo not given)
> 31.7 µM

Look at this molecule and give its reported TGI. O=C(CCc1ccccc1)NCCc1ccc(O)c(O)c1
> 89.4 µM

I would be grateful if you could share the reported TGI for COc1cc(-c2nn(-c3cccc(NC(=O)c4cccc(C(F)(F)F)c4)c3)cc2-c2ccncc2)ccc1Cl .
> 50 µM

We now examine a further molecule.
Item COc1ccc2c(C=O)c3n(c(=O)c2c1OC)CCc1cc2c(cc1-3)OCO2 has what recorded TGI?
> 100 µM

====

Tested on: HOP-92 NSCLC
Test: NCI tumour cell line growth inhibition, 48 h
attribute_measured: TGI

Solved cases (10 shown):
Give recorded TGI with HOP-92 NSCLC for the following compound: Cc1ccc(C(=O)C2CC3(CCC2(O)c2ccc(C)cc2)CC(=O)Nc2ccccc2C3=O)cc1 (stereo not drawn)
> 100 µM

Param readout = TGI; param system = HOP-92 NSCLC; param query = O=[N+]([O-])c1cccc(C2=NOC3CCCC23)c1 (stereo not drawn) ; response: value
> 100 µM

API: value(readout=TGI, system=HOP-92 NSCLC) for record Nc1ccc(N)c2c1C(=O)c1cccc([N+](=O)[O-])c1C2=O
> 100 µM

Give recorded TGI with HOP-92 NSCLC for the following compound: COC(=O)C1=C(C)C(=O)C2(CCCCCC2C(=O)OC)C1 (stereo not drawn)
> 100 µM

Which measured TGI belongs to O=C(c1ccccc1)n1c2ccc(Br)cc2c2nc3ccccc3nc21 , tested on HOP-92 NSCLC?
> 100 µM

Give recorded TGI with HOP-92 NSCLC for the following compound: CC1=CC(=O)N2[C@H](OC[C@@H]2C(C)C)O1
> 100 µM

Test system HOP-92 NSCLC; read-out TGI; what value for COc1cccc(OC)c1/C=N\N1C(=O)c2ccccc2C1=O ?
> 100 µM

Lab note: need TGI for COc1cc(-c2nn(-c3cccc(NC(=O)c4cccc(C(F)(F)F)c4)c3)cc2-c2ccncc2)ccc1Cl on HOP-92 NSCLC, anyone have it?
3.12 µM

State its TGI on HOP-92 NSCLC: CCn1c(SC)nnc1-c1cc2c([nH]c3ccccc32)c(-c2cccc(O)c2)n1
9.08 µM

Find the measured TGI: item Cc1cccc2c1Oc1ncccc1C2NC(=O)CN(C)C (stereo not drawn) , target or system HOP-92 NSCLC.
> 10 µM

Quick request: TGI for each listed item, please.
1. CC(C)=C[C@@H]1C[C@H](C)[C@H]2CC[C@H](C)[C@H]3C(=O)C(O)=C(C)C(=O)[C@]123
2. COc1cc(/C=C/C(=O)c2c(-c3ccc(Cl)cc3)nc3sc(C)nn23)cc(OC)c1OC
3. CSC(=NCCCN=C(NS(=O)(=O)c1ccc(Cl)cc1)SC)NS(=O)(=O)c1ccc(Cl)cc1

1: > 100 µM; 2: 25.1 µM; 3: 67.9 µM

====

Tested on: HOP-92 NSCLC
Assay: NCI tumour cell line growth inhibition, 48 h; in the data active = GI50 below about 0.43 µM; inactive = the rest
Respond with a class label; see yes (1) = active, no (0) = inactive

Which outcome was assigned to Cc1cccc(Cc2cnc(NC(=O)CCCOc3ccc(Cl)cc3)s2)c1 in this test?
no (0)

Now let's try a different one.
Status in this test for O=C(/C=C/N1CCN(c2cccc(Cl)c2)CC1)c1ccc(Cl)cc1 ?
no (0)

====

Tested on: OVCAR-8 ovarian
Assay: NCI tumour cell line growth inhibition, 48 h
attribute_measured: TGI (µM)
Answers are plain numbers, in µM.

Some solved cases for reference:
Item CCOC(=O)C(NC(=O)c1cccc(Cl)c1)(N1CCN(c2cc3c(cc2F)c(=O)c(C(=O)O)cn3CC)CC1)C(F)(F)F (stereo not given) has what recorded TGI?
46.7

Which TGI value is on record for CCn1c(SC)nnc1-c1cc2c([nH]c3ccccc32)c(-c2cccc(O)c2)n1 ?
24.5

Look at this compound and give its reported TGI. Cc1c(Cl)cc(C(C)(C)C)c(O)c1Cc1c(C)c(Cl)cc(C(C)(C)C)c1O
5.51

---
Which TGI value belongs to COc1ccc(C[C@H](N)C(=O)N[C@@H]2[C@@H](CO)OC(n3cnc4c(N(C)C)ncnc43)[C@@H]2O)cc1 (stereo not given in full) ?
1.13

====

Tested on: HT29 colon
Assay: NCI tumour cell line growth inhibition, 48 h
attribute_measured: TGI (µM)
One number for each entry, in µM.

A selection of reference data follows.
Tell me the measured TGI of Brc1ccc2c(c1)-c1ccccc1C1=NCCN12 , please.
3.33

What measured TGI goes with O=C(Nc1cccc(C(F)(F)F)c1)Nc1cc(S(=O)(=O)NC2CC2)ccc1-c1ccsc1 ?
16.1

May I ask what TGI has been recorded for Nc1ccc2ncc(Nc3ccc(Cl)c(Cl)c3)nc2c1 ?
34.9

Hi there! I need TGI for each item below, if you can.
1. CS(=O)(=O)Nc1ccc(Nc2c3ccccc3nc3cc(Cl)ccc23)cc1
2. CCN(CC)CCCNc1nnc(C)c2[nH]c3ccccc3c12
3. CCNc1nc(-c2ccc(Cl)c(OC)c2)c(-c2ccnc(NCCNS(=O)(=O)c3ccc(Cl)cc3)n2)s1
4. Cc1c(Cl)cc(C(C)(C)C)c(O)c1Cc1c(C)c(Cl)cc(C(C)(C)C)c1O
5. CC(=O)Oc1cc(OC(C)=O)c2c(c1C)CC[C@@H]1[C@@H]2CC[C@]2(C)[C@@H](OC(C)=O)CC[C@@H]12

1. 14.1
2. 56.1
3. 20.1
4. 6.36
5. 29.8

For each of the compounds below, state TGI.
1. COc1ccc(-c2ccc(/C=N/n3c(COc4ccc(Cl)c(C)c4)nn(CN4CCOCC4)c3=S)o2)c([N+](=O)[O-])c1
2. CC(=O)OC1CCC2(C)C(=CCC3C4CC(CN5CC5)C(=O)C4(C)CCC32)C1 (stereo unspecified)

[51.2, 12.6]

====

System: SF-268 CNS
Assay: NCI tumour cell line growth inhibition, 48 h
So I've got a bunch of compounds here, and I need their TGI values.

Look up TGI for the entries below, preserving their order.
1. CC(=O)OC/C=C/Cn1nc(Br)c(=O)[nH]c1=O
2. C/C(=N\NC(=O)c1ccncc1)c1ccccc1O
3. CCn1c(SC)nnc1-c1cc2c([nH]c3ccccc32)c(-c2cccc(O)c2)n1

["> 100 µM", "> 100 µM", "25.5 µM"]

Field: TGI. Fill in for each record below.
1. CC(=O)Oc1c(OC(C)C)cc(=O)n2ccsc12
2. Cc1c(Cl)cc(C(C)(C)C)c(O)c1Cc1c(C)c(Cl)cc(C(C)(C)C)c1O
3. CC(=O)Oc1cc(OC(C)=O)c2c(c1C)CC[C@@H]1[C@@H]2CC[C@]2(C)[C@@H](OC(C)=O)CC[C@@H]12
4. CCOC(=O)c1sc2nc(SC)nc3c2c1NCN3c1ccccc1Cl
5. O=C1NC2(CCCCC2)C2=C1CCCCC2

["> 100 µM", "6.89 µM", "39.3 µM", "> 100 µM", "> 100 µM"]

Record TGI for all entries; do not skip any.
1. Cc1ccc(S(=O)(=O)NCc2cccc([N+](=O)[O-])c2)cc1
2. Cn1c(=O)c(C#N)c(O)c2cc3ccccc3nc21
3. C=CCCC1(CCP(=O)(c2ccccc2)c2ccccc2)OCCO1

1. > 100 µM
2. > 100 µM
3. > 100 µM
